meta.source: ChEMBL document CHEMBL3727362

target: P2X2/P2X3 heterotrimeric receptor (Homo sapiens) (UniProt Q9UBL9+P56373); assay: Antagonist activity against human P2X2/3 receptor expressed in HEK293/1321N1 cells assessed as inhibition of alpha,beta-meATP/ATP-induced calcium influx at 3 uM by Fluo-4 dye based FLIPR assay; type: functional, cell-based
// reported inhibition for each item listed
# unit: % | format: bare number

Worked cases, answers included:
SMILES_STRUCTURE | inhibition [%]
Cc1ccc(N2CCc3ncnc(NCc4ccc(C(C)(C)C)cc4)c3C2)nc1 | 0
Cc1ccc(N2CCc3ncnc(NCc4ccc(C(C)C)cc4)c3C2)nc1 | 0
Cc1ccc(N2CCc3ncnc(NCc4ccc(Cl)c(Cl)c4)c3C2)nc1 | 0
CCc1ccc(CN(C)c2ncnc3c2CN(c2ccc(C)cn2)CC3)cc1 | 0
Cc1ccc(N2CCc3ncnc(N(C)Cc4ccc(Cl)cc4)c3C2)nc1 | 0

Kindly consider the entry below.
Entry "Cc1ccc(N2CCc3ncnc(NCc4cc(F)cc(C(F)(F)F)c4)c3C2)nc1" has what inhibition?
0
